tested on: A549/ATCC NSCLC; assay: NCI-60 one-dose screen, 48 h (100 = growth as untreated, 0 = no growth, -100 = all killed); conditions: 10 µM unless noted
This is part of a sample that, as a whole, favours compounds with a hit. Of some 83,000 tested, about 20% had one in any assay. Calls of active or inactive are those of the source. How the source made its calls: active means growth percent below 10; inactive means the rest.
recorded.metric: growth

In the examples that follow, each entry is paired with its recorded growth.
CCOC(=O)c1cc(C(=O)c2cc(OC)c(OC)c(OC)c2)n2c1ccc1ccccc12: 34.4% (inactive)
CC(C)C1=CC2=C(C=O)C[C@@H]3[C@](C)(CCC[C@@]3(C)C(=O)OCC#CCN3CCCC3)[C@H]2CC1: 67.4% (inactive)

query: What value of growth has been reported for the following molecule? C=C(C)[C@@H]1CC[C@]2(C(=O)O)CC[C@]3(C)[C@H](CC[C@@H]4[C@@]5(C)C[C@@H](CC#Cc6ccc(C(F)(F)F)cc6)[C@H](O)C(C)(C)[C@@H]5CC[C@]43C)[C@@H]12
result: 10.3% (inactive)

query: One more molecule: CC(C)(C)n1cc(-c2ccnc(NCCCNS(=O)(=O)c3ccc(C(F)(F)F)cc3)c2)c(-c2cccc(O)c2)n1
result: 21.5% (inactive)

query: One more molecule: C=CCSc1n[nH]c(-c2cccs2)n1
result: 98.8% (inactive)

query: One more molecule: Cn1cc(-c2cnc3ccc(NC(=O)Nc4ccc(F)c(Br)c4)cc3n2)cn1
result: 22.5% (inactive)

query: One more molecule: C=C(C)[C@@H]1CC[C@]2(C(=O)N3CCNCC3)CC[C@]3(C)[C@H](CC[C@@H]4[C@@]5(C)C/C(=C/c6ccncc6)C(=O)C(C)(C)[C@@H]5CC[C@]43C)[C@@H]12
result: 102% (inactive)

query: One more molecule: CN1CCN(CCCOc2ccc3nc(Nc4ccc(Cl)c(C(F)(F)F)c4)ccc3c2)CC1
result: 55.3% (inactive)
